Each recorded value in this set is attributed to ChEMBL document CHEMBL1132711.

biological target: Progesterone receptor (Homo sapiens) (UniProt P06401); test: Agonistic activity by cotransfection assay against human Progesterone receptor in T47D cells; type: functional, cell-based
Sequence (P06401 whole entry): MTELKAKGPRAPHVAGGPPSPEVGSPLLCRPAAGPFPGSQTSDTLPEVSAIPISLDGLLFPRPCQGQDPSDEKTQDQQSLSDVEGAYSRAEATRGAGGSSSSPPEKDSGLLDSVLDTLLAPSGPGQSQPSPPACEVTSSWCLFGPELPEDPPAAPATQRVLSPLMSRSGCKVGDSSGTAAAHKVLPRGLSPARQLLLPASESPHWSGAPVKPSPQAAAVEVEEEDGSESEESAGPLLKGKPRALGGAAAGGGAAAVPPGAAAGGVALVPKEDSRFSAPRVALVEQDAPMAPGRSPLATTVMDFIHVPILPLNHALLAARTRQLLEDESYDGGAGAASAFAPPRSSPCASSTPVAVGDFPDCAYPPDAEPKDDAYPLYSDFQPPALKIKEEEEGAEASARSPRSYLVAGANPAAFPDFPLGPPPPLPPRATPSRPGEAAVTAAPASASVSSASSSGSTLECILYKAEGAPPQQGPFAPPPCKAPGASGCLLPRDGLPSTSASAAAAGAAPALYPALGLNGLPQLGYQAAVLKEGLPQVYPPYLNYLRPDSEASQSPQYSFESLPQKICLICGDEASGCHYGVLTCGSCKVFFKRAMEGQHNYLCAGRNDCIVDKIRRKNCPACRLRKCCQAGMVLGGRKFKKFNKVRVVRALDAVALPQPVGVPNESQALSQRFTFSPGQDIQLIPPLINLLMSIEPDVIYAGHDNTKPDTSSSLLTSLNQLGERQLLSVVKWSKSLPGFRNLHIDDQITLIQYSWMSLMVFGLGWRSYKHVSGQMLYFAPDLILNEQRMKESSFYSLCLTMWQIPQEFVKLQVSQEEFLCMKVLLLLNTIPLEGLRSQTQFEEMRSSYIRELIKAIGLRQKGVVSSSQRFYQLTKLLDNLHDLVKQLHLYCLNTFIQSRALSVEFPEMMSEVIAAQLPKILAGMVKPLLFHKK
So basically: is Efficacy under 90%? Then 1. Not under? Then 0.

Example entries and their recorded answers appear below.
C[C@H]1C(=O)C(C)(C)Nc2ccc3c(c21)[C@H](c1cccc(F)c1)Oc1ccccc1-3
0
CC1=CC(C)(C)Nc2ccc3c(c21)C(C)Oc1ccc(Cl)cc1-3 (stereo unspecified)
1
CC1C(=O)C(C)(C)Nc2ccc3c(c21)/C(=C/c1ccccc1)Oc1ccccc1-3 (stereo unspecified)
0
C[C@@H]1C(=O)C(C)(C)Nc2ccc3c(c21)[C@H](c1ccc(Cl)cc1)Oc1ccccc1-3
0

Let us examine a further case.
**Q:** Is 90% strictly greater than the compound's reported Efficacy? compound: CC1=CC(C)(C)Nc2ccc3c(c21)C(c1ccc(Cl)cc1)Oc1ccccc1-3 (stereo unspecified)
**A:** 1
